# assay: chemical genetic growth profiling, strain panel (AID 1159580);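 further: tested at 20 µM; growth read once vehicle control cultures reached saturation at 30 °C; 1 = growth at the plate median or of vehicle wells; lower values mean less growth of the strain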
# runParameters: S. cerevisiae deletion strains, growth OD, locus YNL322C, strain KRE1, active compounds read low
About 2,000 (36%) of roughly 5,500 compounds were called active. Roughly 18% stayed inconclusive and do not appear here. Some of the results follow.
So basically, if normalized growth comes in under 1 it's true (1), and if it's 1 or more it's false (0).

molecularstring=NC(N)=Nc1ccc2[nH]c3c(c2c1)C[C@@]1(O)[C@H]2Cc4ccc(O)c5c4[C@@]1(CCN2CC1CC1)[C@H]3O5 discretelabel="false (0)"
molecularstring=N#CCCNc1cc(C(F)(F)F)cc(C(F)(F)F)c1 discretelabel="true (1)"
molecularstring=S=C(S)N1CCCC1 discretelabel="true (1)"
molecularstring=O=C(NC(=S)Nc1ccc(Cl)cc1)c1ccc([N+](=O)[O-])o1 discretelabel="true (1)"

----------
# assay: chemical genetic growth profiling, strain panel (AID 1159580)
# runParameters: S. cerevisiae deletion strains, growth OD, locus YNL153C, strain GIM3, active compounds read low
Hit rate of the full screen: of about 5,500 compounds, about 2,000 (36%) were called active. About 18% were inconclusive and are not listed. Some of the results follow.
Item-by-item account of normalized growth
measuredParameter: normalized growth

molecularstring=O=C(NCCNc1ccc(C(F)(F)F)cc1[N+](=O)[O-])c1cccs1 assayresult="0.976 (inactive)"
molecularstring=C[C@]12C=CC(=O)C=C1CC[C@H]1[C@@H]3C[C@@H](O)[C@](O)(C(=O)CO)[C@@]3(C)C[C@H](O)[C@@]12F assayresult="1 (inactive)"
molecularstring=COc1ccc2[nH]c(I)c(CCNC(C)=O)c2c1 assayresult="0.997 (inactive)"
molecularstring=NC(N)=N[C@@H](CCC(=O)O)C(=O)O assayresult="1.02 (inactive)"
molecularstring=CC(C)=CCc1c(O)cc2occ(-c3ccc4c(c3)OCO4)c(=O)c2c1O assayresult="1 (inactive)"
molecularstring=CC1(C)C[C@@H]2C(=O)CC[C@H]3O[C@]3(C)CC[C@H]21 assayresult="1.02 (inactive)"
molecularstring=COc1c2c(cc3occ(-c4ccc5c(c4)OCO5)c(=O)c13)OC(C)(C)C=C2 assayresult="0.993 (inactive)"

----------
# assay: chemical genetic growth profiling, strain panel (AID 1159580)
# runParameters: S. cerevisiae deletion strains, growth OD, locus YJL166W, strain qcr8, active compounds read low
The campaign covered roughly 5,500 compounds. About 2,000 (36%) were called active. Roughly 18% stayed inconclusive and do not appear here. The list shows a part of the results.
measuredParameter: normalized growth

compound="O=C1OC(=O)C2C3CCC(O3)C12 (stereo not given)" assayresult=0.99
compound=Cc1cccc(N(C)C(=S)Oc2ccc3ccccc3c2)c1 assayresult=0.99
compound=CCCCCN=C(N)N/N=C\c1c[nH]c2ccc(OC)cc12 assayresult=1.02
compound=N#Cc1ccc2c(c1)N(CCCN1CCC(O)CC1)c1ccccc1S2 assayresult=0.997
compound=CC(=O)c1ccc2c(c1)N(CCCN(C)C)c1ccccc1S2 assayresult=0.997

----------
Item-by-item account of normalized growth
# assay: chemical genetic growth profiling, strain panel (AID 1159580)
# runParameters: S. cerevisiae deletion strains, growth OD, locus YML124C, strain tub3, active compounds read low
About 2,000 (36%) of roughly 5,500 compounds were called active. Inconclusive results (about 18%) are left out. The list shows a part of the results.
measuredParameter: normalized growth

compound=CC1(C)S[C@@H]2[C@H](NC(=O)COc3ccccc3)C(=O)N2[C@H]1C(=O)O measuredparameter="normalized growth" assayresult=1.03
compound="C[C@]12CCC3C(CC[C@H]4C[C@@H](Cl)CC[C@]34C)C1CCC2=O (stereo partly drawn)" measuredparameter="normalized growth" assayresult=1.02
compound="CC1=C2CCC3C(CC[C@]4(C)C(=O)CCC34)[C@@]2(C)CCC1=O (stereo partly drawn)" measuredparameter="normalized growth" assayresult=0.969
compound="C[C@]12CCC3C(CC[C@H]4C[C@@H](O)CC[C@]34C)C1CCC2=O (stereo partly drawn)" measuredparameter="normalized growth" assayresult=0.944
compound="O=C1OC(=O)C2C3CCC(O3)C12 (stereo not drawn)" measuredparameter="normalized growth" assayresult=0.986
compound=CCCc1nc(C(C)(C)O)c(C(=O)OCc2oc(=O)oc2C)n1Cc1ccc(-c2ccccc2-c2nn[nH]n2)cc1 measuredparameter="normalized growth" assayresult=0.984
compound=CCCCC(=O)N(Cc1ccc(-c2ccccc2-c2nn[nH]n2)cc1)[C@H](C(=O)O)C(C)C measuredparameter="normalized growth" assayresult=0.985
compound="C[C@]12C=CC(=O)C=C1CCC1C2C(=O)C[C@@]2(C)C1CC[C@]2(O)C(=O)CO (stereo partly drawn)" measuredparameter="normalized growth" assayresult=0.983

----------
# assay: chemical genetic growth profiling, strain panel (AID 1159580);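 further: tested at 20 µM; growth read once vehicle control cultures reached saturation at 30 °C; 1 = growth at the plate median or of vehicle wells; lower values mean less growth of the strain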
# runParameters: S. cerevisiae deletion strains, growth OD, locus YMR219W, strain ESC1
The campaign covered roughly 5,500 compounds. About 2,000 (36%) were called active. Roughly 18% stayed inconclusive and do not appear here. No stated cut-off is given here; in the data, active means normalized growth mostly below about 0.91 (no sharp cut-off); inconclusive means no clear call, values can overlap the other calls; inactive means mostly above about 0.92. This is one part of the list.
Labels: 1 (yes) (active), 0 (no) (inactive)

molecularstring=FC(F)(F)c1ccc(-n2cncn2)nc1 discretelabel="0 (no)"
molecularstring=CC1=CC(C)(C)NC(=S)N1 discretelabel="0 (no)"
molecularstring=COc1ccc(-c2c(C(=O)O)sc(SC)c2C#N)cc1 discretelabel="0 (no)"
molecularstring=CSc1sc(-c2ccn[nH]2)c(-c2ccccc2)c1C#N discretelabel="0 (no)"
molecularstring=NNC(=S)Nc1ccc(C(F)(F)F)cc1 discretelabel="0 (no)"
molecularstring=CC(C)(C)c1cc(C(C)(C)C)n(-c2ccc(N=Cc3cc(Br)cc(Br)c3O)cc2)n1 discretelabel="1 (yes)"
molecularstring=O=c1nc(-c2ccccc2)nc(-c2ccccc2)[nH]1 discretelabel="0 (no)"
molecularstring=FC(F)(F)c1cc(NC2=NCCN=C(Nc3cc(C(F)(F)F)cc(C(F)(F)F)c3)SS2)cc(C(F)(F)F)c1 discretelabel="0 (no)"
molecularstring=O=C(NCCNc1ccc(C(F)(F)F)cc1[N+](=O)[O-])c1cccs1 discretelabel="0 (no)"
molecularstring=CCc1cccc(C)c1NC(=O)N1CCN(C(=O)OC(C)(C)C)CC1 discretelabel="0 (no)"
molecularstring=Cc1ccc(C(=O)NNC(=O)c2ccncc2)c(C)c1 discretelabel="0 (no)"
molecularstring=COc1cc(Cl)c(Cl)cc1Cl discretelabel="0 (no)"
molecularstring=COC(=O)Cc1nc(NC(=O)c2ccccc2)sc1C discretelabel="0 (no)"
molecularstring=Cc1onc(-c2c(F)cccc2Cl)c1C(=O)N1CCN(c2ncccc2C(F)(F)F)CC1 discretelabel="0 (no)"
molecularstring=NNC(=S)Nc1cc(C(F)(F)F)ccc1Cl discretelabel="0 (no)"

----------
# assay: chemical genetic growth profiling, strain panel (AID 1159580);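 further: tested at 20 µM; growth read once vehicle control cultures reached saturation at 30 °C; 1 = growth at the plate median or of vehicle wells; lower values mean less growth of the strain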
# runParameters: S. cerevisiae deletion strains, growth OD, locus YDL185W, strain tfp1, active compounds read low
Among all 5,500 compounds or so, about 2,000 (36%) were called active. Another 18% or so got no clear call; they are omitted. The list shows a part of the results.
So basically, if normalized growth comes in under 1 it's 1.0, and if it's 1 or more it's 0.0.

molecularstring=CN1CCN(C(c2ccccc2)c2ccccc2)CC1 discretelabel=1.0
molecularstring=COc1ccc2c(c1)[nH]c1c(C)nccc12 discretelabel=1.0
molecularstring=CC1=C2[C@](C)(C=CC1=O)C[C@H](O)[C@H]1[C@H](C)C(=O)O[C@]21C discretelabel=0.0
molecularstring=COc1ccc2ccc(=O)oc2c1CC=C(C)C discretelabel=1.0
molecularstring=COc1cc2ccc(=O)oc2c(OC)c1OC discretelabel=0.0

----------
# assay: chemical genetic growth profiling, strain panel (AID 1159580);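 further: tested at 20 µM; growth read once vehicle control cultures reached saturation at 30 °C; 1 = growth at the plate median or of vehicle wells; lower values mean less growth of the strain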
# runParameters: S. cerevisiae deletion strains, growth OD, locus YEL061C, strain CIN8, active compounds read low
In all, about 5,500 compounds went through this assay and about 2,000 (36%) were called active. Inconclusive results (about 18%) are left out. The list shows a part of the results.
measuredParameter: normalized growth

compound=CCn1cc([N+](=O)[O-])nc1C measuredparameter="normalized growth" assayresult="0.981 (inactive)"
compound=Cc1ccc(S(=O)(=O)Oc2cc(=O)n(C)c3ccccc23)cc1 measuredparameter="normalized growth" assayresult="0.972 (inactive)"
compound=Cn1cnc([N+](=O)[O-])c1Sc1ncnc2nc[nH]c12 measuredparameter="normalized growth" assayresult="1.01 (inactive)"
compound=COc1cccc(CC(=O)NN)c1 measuredparameter="normalized growth" assayresult="1 (inactive)"
compound=O=C1c2ccc(O)c(O)c2C(=O)c2c(O)ccc(O)c21 measuredparameter="normalized growth" assayresult="1 (inactive)"
compound="CC(O)CNc1ccc(C(F)(F)F)cc1[N+](=O)[O-] (stereo not drawn)" measuredparameter="normalized growth" assayresult="0.997 (inactive)"
compound="C[N+]1(C)C2CC[C@H]1CC(OC(=O)C(O)c1ccccc1)C2 (stereo partly drawn)" measuredparameter="normalized growth" assayresult="0.995 (inactive)"
compound=O=C1c2ccccc2C(=O)c2c1ccc(O)c2O measuredparameter="normalized growth" assayresult="0.39 (active)"
